Target: HLA class I molecule B08.01
Experiment: pMHC-I dissociation half-life, 125I-b2m
Details: remark: other sources report otherwise
Would you kindly list Stability (T1/2 (h)) for each of these binders?
Report only the number, with the unit h understood.

Ask: Quote Stability (T1/2 (h)) reported for LSLMPAHWSI please.
Result: 0

Ask: Quote Stability (T1/2 (h)) reported for FELLSTPPL please.
Result: 0

Ask: Quote Stability (T1/2 (h)) reported for YLGNHMNIA please.
Result: 0

Ask: Quote Stability (T1/2 (h)) reported for YVMAYVMAG please.
Result: 1.2

Ask: Quote Stability (T1/2 (h)) reported for FQNGKMALSA please.
Result: 0

Ask: Quote Stability (T1/2 (h)) reported for SQIMSLWGL please.
Result: 0

Ask: Quote Stability (T1/2 (h)) reported for SLMPAHWSI please.
Result: 0

Ask: Quote Stability (T1/2 (h)) reported for SLGNHLCPL please.
Result: 0.5

Ask: Quote Stability (T1/2 (h)) reported for FLQEQYHEA please.
Result: 0

Ask: Quote Stability (T1/2 (h)) reported for YMFLKAESKI please.
Result: 0.4

Ask: Quote Stability (T1/2 (h)) reported for FLLALWECSL please.
Result: 0

Ask: Quote Stability (T1/2 (h)) reported for YVMAYVMAGV please.
Result: 0
